Hey, just so you know, these numbers are from PubChem BioAssay AID720706.

test: GFP drop in mixed WT/humanized-ribosome E. coli culture – GFP/RFP fluorescence, OD600, single point, bacterial rRNA inhibitor project, primary screen (AID 720706); conditions: E. coli WT GFP vs humanized-ribosome RFP mutants, 24 h, DMSO median 0, no signal -100
About 5,500 (1.6%) of roughly 350,000 compounds were called active.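 How the source made its calls: active means significant combined selectivity score with lowered wild-type GFP, culture density cut under 30%, mutant RFP and density less affected; inactive means any of these conditions unmet.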 The sample holds actives, similar compounds and a random draw of the others, so the mix is not that of the screen.
# output must be one of active, inactive

Consider the following illustrative entries.
Fill in: this test's call for COc1ccc(S(=O)(=O)NC(C)C(=O)NCc2ccncc2)cc1Cl (centres undefined) is ___ inactive

Fill in: this test's call for CCN(CC)S(=O)(=O)c1ccc(N2CCCC2)c(NC(=O)c2ccc([N+](=O)[O-])o2)c1 is ___ active

Fill in: this test's call for CCN(CC)S(=O)(=O)c1ccc(N2CCOCC2)c(NC(=O)c2ccc(=O)n(C)n2)c1 is ___ inactive

Fill in: this test's call for CN1C(=O)c2cc(NC(=O)c3ccccc3)ccc2OC[C@@H]2O[C@@H](CC(=O)NC3CCCC3)CC[C@H]21 is ___ inactive

Fill in: this test's call for O=C(C[C@H]1CC[C@H]2[C@@H](COC[C@@H](O)CN2S(=O)(=O)c2ccc(Cl)cc2)O1)NCCN1CCCCC1 is ___ inactive

Fill in: this test's call for CCOC(=O)C(=Cc1ccccc1)C(=O)c1ccccc1 is ___ active

Fill in: this test's call for CCOC(=O)CNC(=O)/C(=C\c1ccc(F)cc1)NC(=O)c1ccccc1 is ___ inactive

Fill in: this test's call for COc1ccccc1NC(=O)N1C[C@@H]2[C@H](c3ccccc31)[C@H](CO)N2CC1CCOCC1 is ___ inactive

Pending molecule:
Fill in: this test's call for Cc1noc(C)c1NC(=O)N(C)C[C@@H]1Oc2ccc(NC(=O)Nc3ccc(F)cc3)cc2C(=O)N([C@H](C)CO)C[C@@H]1C is ___ inactive

====

# GFP signal change (wild-type ribosome) values compiled below
assay: GFP drop in mixed WT/humanized-ribosome E. coli culture – GFP/RFP fluorescence, OD600, single point, bacterial rRNA inhibitor project, primary screen (AID 720706); conditions: E. coli WT GFP vs humanized-ribosome RFP mutants, 24 h; stronger effect = lower value, DMSO median 0, no signal -100
The campaign covered roughly 350,000 compounds. About 5,500 (1.6%) were called active. This excerpt belongs to a sample that is enriched for actives.
Report the figure in % without appending any unit label.

Here's what some known entries look like.
response.value for COc1ccc(C(=O)COC(=O)c2c(C)noc2C)cc1Cl (field: GFP signal change (wild-type ribosome)) = 0.365

response.value for O=c1oc2ccccc2c(NC2CCCCC2)c1NS(=O)(=O)c1ccc(Cl)cc1 (field: GFP signal change (wild-type ribosome)) = 11.9

response.value for Cc1cc(C)n2nc(C(=O)N3CCN(Cc4ccc5c(c4)OCO5)CC3)nc2n1 (field: GFP signal change (wild-type ribosome)) = 6.71

response.value for Cc1onc(-c2ccccc2Cl)c1C(=O)OCC(=O)c1ccccc1 (field: GFP signal change (wild-type ribosome)) = -21.5

Further cases:
response.value for C[C@@H](NC(=O)C[C@@H]1CC[C@H]2[C@@H](COC[C@@H](O)CN2C(=O)Nc2cccc(F)c2)O1)c1ccccc1 (field: GFP signal change (wild-type ribosome)) = -11.5

response.value for C[C@H](CO)N1C[C@H](C)[C@H](CN(C)C(=O)C2CCOCC2)Oc2ncc(C#Cc3ccccc3F)cc2C1=O (field: GFP signal change (wild-type ribosome)) = 4.96

response.value for O=C(NCc1nnnn1-c1ccc(Cl)cc1)c1ccc([N+](=O)[O-])o1 (field: GFP signal change (wild-type ribosome)) = -23

response.value for CC1CC2=C(CC1/C=N/NC(N)=S)C(C)(C)CCC2 (stereo not drawn) (field: GFP signal change (wild-type ribosome)) = -18.2

response.value for COc1ccccc1C#Cc1ccc2c(c1)O[C@@H](CN(C)Cc1cncnc1)[C@H](C)CN([C@@H](C)CO)S2(=O)=O (field: GFP signal change (wild-type ribosome)) = -12.1

response.value for Cc1onc(-c2ccccc2Cl)c1C(=O)OCc1nnc(-c2ccccc2)o1 (field: GFP signal change (wild-type ribosome)) = -1.78

response.value for Cc1ccc(NC(=O)N2CCC(c3nc4c(nnn4Cc4c(F)cccc4Cl)c(=O)[nH]3)CC2)cc1 (field: GFP signal change (wild-type ribosome)) = -32.9

response.value for Cc1ccc(Cn2nnc3c(=O)[nH]c(C4CCN(S(=O)(=O)/C=C/c5ccccc5)CC4)nc32)cc1 (field: GFP signal change (wild-type ribosome)) = -1.02

response.value for O=c1ccc2cc(S(=O)(=O)Nc3ccccc3F)ccc2o1 (field: GFP signal change (wild-type ribosome)) = 6.96

response.value for C[C@H](NC(=O)N(C)C[C@@H]1OCc2ccccc2-c2ccccc2C(=O)N([C@H](C)CO)C[C@@H]1C)c1ccccc1 (field: GFP signal change (wild-type ribosome)) = -0.824

response.value for COc1ccc(C#Cc2ccc([C@H]3[C@H]4CN(C(=O)c5cccnc5)CC(=O)N4[C@H]3CO)cc2)cc1 (field: GFP signal change (wild-type ribosome)) = 0.302

response.value for Cc1noc(C)c1NC(=O)N(C)C[C@@H]1Oc2ccc(NC(=O)CCN3CCOCC3)cc2CC(=O)N([C@H](C)CO)C[C@@H]1C (field: GFP signal change (wild-type ribosome)) = -0.675

response.value for CC(C)NC(=O)N(C)C[C@H]1Oc2c(cccc2N(C)C)C(=O)N(C)C[C@H]1C (field: GFP signal change (wild-type ribosome)) = 3.79

response.value for C[C@H](CO)N1C[C@H](C)[C@@H](CN(C)C(=O)Nc2cccc(F)c2)OCc2ccccc2-c2ccccc2C1=O (field: GFP signal change (wild-type ribosome)) = -0.679

====

test: GFP drop in mixed WT/humanized-ribosome E. coli culture – GFP/RFP fluorescence, OD600, single point, bacterial rRNA inhibitor project, primary screen (AID 720706); conditions: E. coli WT GFP vs humanized-ribosome RFP mutants, 24 h; measured here: RFP humanized mutant strains, DMSO median 0, no signal -100, concentration not given here
Among all 350,000 compounds or so, about 5,500 (1.6%) were called active. The entries come from a sample that favours actives as a whole.
parameter: RFP signal change
Don't forget the unit after the number, please.

response.value for COCCNC(=O)C[C@@H]1C[C@@H]2c3cc(NS(=O)(=O)c4ccccc4)ccc3O[C@@H]2[C@H](CO)O1 (field: RFP signal change) = -0.545%

====

test: GFP drop in mixed WT/humanized-ribosome E. coli culture – GFP/RFP fluorescence, OD600, single point, bacterial rRNA inhibitor project, primary screen (AID 720706); details: E. coli WT GFP vs humanized-ribosome RFP mutants, 24 h; measured here: OD600 growth, DMSO median 0, no signal -100
The whole screen tested about 350,000 compounds, of which about 5,500 (1.6%) were called active. This excerpt belongs to a sample that is enriched for actives.
parameter: OD600 change
Don't forget the unit after the number, please.

response.value for CCCNC(=O)N1CC2(C1)CN(Cc1cccc(F)c1)[C@@H](CO)c1[nH]c3cc(OC)ccc3c12 (field: OD600 change) = 3.77%

response.value for CSc1nnc(NC(=O)c2nc(S(=O)(=O)Cc3ccc(C)cc3)ncc2Cl)s1 (field: OD600 change) = -0.98%

response.value for Cc1cccc(CS(=O)(=O)c2ncc(Cl)c(C(=O)Nc3ccc(F)cc3)n2)c1 (field: OD600 change) = 2.7%

response.value for Cc1ccc(-n2c(SCC(=O)Nc3ncc(Cl)cc3Cl)nc3ccccc32)cc1 (field: OD600 change) = -16.7%

// switching to the query molecule
response.value for Cc1cc(C)n2nc(C(=O)N3CCN(Cc4ccc5c(c4)OCO5)CC3)nc2n1 (field: OD600 change) = 4.13%

====

test: GFP drop in mixed WT/humanized-ribosome E. coli culture – GFP/RFP fluorescence, OD600, single point, bacterial rRNA inhibitor project, primary screen (AID 720706); conditions: E. coli WT GFP vs humanized-ribosome RFP mutants, 24 h; stronger effect = lower value, DMSO median 0, no signal -100
Among all 350,000 compounds or so, about 5,500 (1.6%) were called active. The sample holds actives, similar compounds and a random draw of the others, so the mix is not that of the screen.
# GFP signal change (wild-type ribosome) values compiled below

Here's what some known entries look like.
response.value for CCCNC(=O)N1CC2(C1)CN(Cc1cccc(F)c1)[C@@H](CO)c1[nH]c3cc(OC)ccc3c12 (field: GFP signal change (wild-type ribosome)) = 0.104% (inactive)

response.value for O=C(Nc1ccc(Cl)c(Cl)c1)c1ccccc1NC(=O)C1CC=CCC1C(=O)O (stereo not drawn) (field: GFP signal change (wild-type ribosome)) = -35.4% (inactive)

response.value for CCC(=O)N1CC2(CN(Cc3cccnc3)C2)c2c(n(C)c3cc(OC)ccc23)[C@@H]1CO (field: GFP signal change (wild-type ribosome)) = 1.02% (inactive)

Further cases:
response.value for COC(=O)C1=C(C)N(Cc2ccc(C(F)(F)F)cc2)C(=NCc2ccccc2)NC1c1ccccc1C(F)(F)F (stereo not drawn) (field: GFP signal change (wild-type ribosome)) = -44.7% (inactive)

response.value for COCC(=O)N(C)C[C@H]1[C@@H](c2ccccc2)[C@H](CO)N1C(=O)Cc1ccncc1 (field: GFP signal change (wild-type ribosome)) = 4.17% (inactive)

response.value for CC[C@H](NC(=O)[C@H](Cc1ccccc1)NC(=O)[C@H]1O[C@@H](n2cnc3c(=O)[nH]c(N)nc32)[C@H](O)[C@@H]1O)c1ccccc1 (field: GFP signal change (wild-type ribosome)) = 13.7% (inactive)

response.value for COc1cccc(C(=O)N2C[C@@H]3[C@H](c4ccccc42)[C@H](CO)N3Cc2ccccc2F)c1 (field: GFP signal change (wild-type ribosome)) = -8.84% (inactive)

response.value for O=C(Nc1ccc2c(c1)OCO2)C1CC1(Cl)Cl (stereo not drawn) (field: GFP signal change (wild-type ribosome)) = -1.64% (inactive)
